- study system: HDAC2 (Homo sapiens, UniProt Q92769)
- Sequence (Q92769 whole entry): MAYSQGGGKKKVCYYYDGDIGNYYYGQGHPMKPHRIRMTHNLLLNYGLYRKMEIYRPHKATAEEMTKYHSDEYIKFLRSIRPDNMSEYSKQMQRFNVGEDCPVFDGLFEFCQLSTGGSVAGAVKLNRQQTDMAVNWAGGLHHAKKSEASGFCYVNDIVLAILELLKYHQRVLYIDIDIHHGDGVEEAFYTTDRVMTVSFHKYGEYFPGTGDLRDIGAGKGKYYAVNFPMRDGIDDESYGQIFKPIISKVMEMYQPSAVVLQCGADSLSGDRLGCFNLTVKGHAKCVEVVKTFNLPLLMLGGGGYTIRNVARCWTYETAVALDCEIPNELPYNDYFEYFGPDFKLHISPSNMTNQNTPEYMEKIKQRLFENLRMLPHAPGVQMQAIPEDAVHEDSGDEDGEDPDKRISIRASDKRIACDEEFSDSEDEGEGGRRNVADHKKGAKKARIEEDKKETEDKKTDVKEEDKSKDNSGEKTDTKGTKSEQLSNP
- measurement notes: Reporter displacement assay (HDAC2 Kd)
- condition parameters: HDAC2 with C-terminal HIS-Tag 20 nM, 180 nM reporter probe, read after 4 h; Kd by Cheng Prusoff from probe displacement
Reported Kd values follow for various compounds

>>> result("Cn1c(SCC(=O)c2ccc(Cl)cc2)nc(O)cc1=O")
"100 to 1000 nM"
>>> result("CC(=O)N(C)c1ccc(C(=O)CSc2nc(O)cc(=O)[nH]2)cc1")
"< 100 nM"
>>> result("CCn1c(SCC(=O)c2ccc(C)cc2)nc(O)cc1=O")
"100 to 1000 nM"
>>> result("O=C(CSc1nc(O)cc(=O)[nH]1)c1ccc2[nH]cnc2c1")
"100 to 1000 nM"
>>> result("CCc1ccc(C(=O)CSc2nc(C)cc(=O)[nH]2)cc1")
"1000 to 10000 nM"
>>> result("O=C(CSc1nc(O)c(-c2ccccc2)c(=O)[nH]1)c1ccc(NC(=O)c2ccccc2)cc1")
"< 100 nM"
>>> result("Cc1ccc(C(=O)COc2nc(C)cc(=O)[nH]2)cc1")
"> 10000 nM"
>>> result("O=C(CSc1nc(O)cc(=O)[nH]1)c1ccc(NC(=O)C(F)(F)F)cc1")
"< 100 nM"

Could you tell me which Kd is on file for `Cc1ccc(C(=O)CSc2nc(O)cc(=O)n2C)cc1` ? 100 to 1000 nM

I am curious: what Kd value has been reported for `CC(=O)Nc1ccc(C(=O)CSc2nc(O)cc(=O)n2-c2ccccc2)cc1` ? 100 to 1000 nM

Any idea what Kd was measured for `C=CCn1c(SCC(=O)c2ccc(C)cc2)nc(O)cc1=O` ? < 100 nM

Fill blank: measured Kd of the compound C=CCn1c(SCC(O)c2ccc(C)cc2)nc(O)cc1=O (stereo not shown) is ____. 100 to 1000 nM

Value lookup for Kd; key = `CC(=O)Nc1ccc(C(=O)CSc2nc(O)cc(=O)n2C2CC2)cc1` 100 to 1000 nM

----------
- study system: UniProt Q92769
- measurement notes: Reporter displacement assay (HDAC2 Kd)
- condition parameters: HDAC2 with C-terminal HIS-Tag 20 nM, 180 nM reporter probe, read after 4 h; Kd by Cheng Prusoff from probe displacement
measure name: Kd

Please review the entries below; each comes with its answer.
>>> result("Cn1c(SCC(=O)c2ccccc2)nc(O)c(-c2ccccc2)c1=O")
"100 to 1000 nM"
>>> result("CC(=O)Nc1ccc(C(=O)CSc2nc(O)cc(=O)[nH]2)cc1")
"< 100 nM"
>>> result("CC(C)(C)OC(=O)Nc1ccc(C(=O)CSc2nc(O)cc(=O)[nH]2)cc1")
"100 to 1000 nM"
>>> result("COc1ccc(C(=O)CSc2nc(O)cc(=O)[nH]2)cc1")
"100 to 1000 nM"

// query Kd value for entry `CC(=O)Nc1ccc(C(=O)CSc2nc3ccccc3c(=O)[nH]2)cc1` 100 to 1000 nM

What value of Kd has been recorded for this entry: `O=C(CSc1nc(O)c(Cc2ccccc2)c(=O)[nH]1)c1ccccc1` 100 to 1000 nM

Entry `CC(=O)Nc1ccc(/C(CSc2nc(O)cc(=O)[nH]2)=N\O)cc1` : reported Kd = ? 1000 to 10000 nM
